biological target: Human 11β-HSD1 (Homo sapiens)
Sequence (P28845 whole entry): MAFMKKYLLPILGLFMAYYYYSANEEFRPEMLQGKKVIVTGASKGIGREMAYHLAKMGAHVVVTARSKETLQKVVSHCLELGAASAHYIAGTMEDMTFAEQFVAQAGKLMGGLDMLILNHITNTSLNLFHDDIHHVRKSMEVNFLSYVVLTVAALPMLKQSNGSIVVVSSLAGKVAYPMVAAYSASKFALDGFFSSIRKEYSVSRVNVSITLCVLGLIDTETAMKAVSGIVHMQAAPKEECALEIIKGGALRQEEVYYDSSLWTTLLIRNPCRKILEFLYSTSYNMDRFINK
quantity: log10(IC50) (log10 of the value in nM)

{"columns": ["compound", "log10(IC50)"],
 "data": [
  ["CC1(C)CC2CC(C)(CN2S(=O)(=O)c2ccccc2Cl)C1 (stereo not drawn) [compound 12]", 3.15],
  ["CC1(C)CC2CC(C)(CN2S(=O)(=O)c2ccc(Cl)cc2)C1 (stereo not drawn) [compound 13]", 2.61],
  ["COC(C)c1ccc(S(=O)(=O)N2CC3(C)CC2CC(C)(C)C3)cc1 (stereo not drawn) [compound 45]", 1.28],
  ["CCCCc1ccc(S(=O)(=O)N2CC3(C)CC2CC(C)(C)C3)cc1 (stereo not drawn) [compound 65]", 2.57],
  ["COC(C)(C)c1ccc(S(=O)(=O)N2CC3CC(C)(C2)CC3(C)C)cc1 (stereo not drawn) [compound 49]", 1.36],
  ["CC1(C)CC2CC(C)(CN2S(=O)(=O)c2ccc([N+](=O)[O-])cc2)C1 (stereo not drawn) [compound 75]", 2.10],
  ["CC1(C)CC2CC(C)(CN2S(=O)(=O)c2ccc(-c3ccccc3)cc2)C1 (stereo not drawn) [compound 25]", 2.23],
  ["CCC(C)(C)c1ccc(S(=O)(=O)N2CC3(C)CC2CC(C)(C)C3)cc1 (stereo not drawn) [Compound No. 23]", 1.45],
  ["Cc1ccc(S(=O)(=O)N2CC3(C)CC2CC(C)(C)C3)cc1 (stereo not drawn) [Compound No. 6]", 2.39]
]}

====

In what follows, each item is paired with its IC50 for Mouse 11β-HSD-1 (Mus musculus, UniProt P50172).
quantity: IC50 (µM)

{"columns": ["compound", "reported.value"],
 "data": [
  ["COc1cccc(S(=O)(=O)N2CC3(C)CC2CC(C)(C)C3)c1 (stereo not drawn) [compound 10]", 3.17],
  ["CC(C)Oc1ccc(S(=O)(=O)N2CC3(C)CC2CC(C)(C)C3)cc1 (stereo not drawn) [compound 64]", 0.217],
  ["Cc1ccccc1S(=O)(=O)N1CC2(C)CC1CC(C)(C)C2 (stereo not drawn) [Compound No. 5]", 18.2]
]}

====

In what follows, each item is paired with its pIC50 for Mouse 11β-HSD-1 (Mus musculus).
pIC50: −log10 of the molar value.
quantity: pIC50

{"columns": ["compound", "reported.value"],
 "data": [
  ["CC1(C)CC2CC(C)(CN2S(=O)(=O)c2ccc([N+](=O)[O-])cc2)C1 (stereo not drawn) [compound 75]", 5.23],
  ["CC1(C)CC2CC(C)(CN2S(=O)(=O)c2ccccc2Cl)C1 (stereo not drawn) [compound 12]", 4.55],
  ["CCC(C)c1ccc(S(=O)(=O)N2CC3(C)CC2CC(C)(C)C3)cc1 (stereo not drawn) [compound 68]", 6.95],
  ["CC1(C)CC2CC(C)(CN2S(=O)(=O)Cc2ccccc2)C1 (stereo not drawn) [compound 4]", 5.10],
  ["CCC(C)(C)c1ccc(S(=O)(=O)N2CC3(C)CC2CC(C)(C)C3)cc1 (stereo not drawn) [Compound No. 23]", 7.72],
  ["CC(C)c1ccc(S(=O)(=O)N2CC3(C)CC2CC(C)(C)C3)cc1 (stereo not drawn) [compound 17]", 6.90],
  ["CC1(C)CC2CC(C)(CN2S(=O)(=O)c2ccc(Cl)c3nonc23)C1 (stereo not drawn) [compound 3]", 5.73],
  ["Cc1ccc(S(=O)(=O)N2CC3(C)CC2CC(C)(C)C3)cc1 (stereo not drawn) [Compound No. 6]", 6.17],
  ["CC1(C)CC2CC(C)(CN2S(=O)(=O)c2ccc(-c3ccccc3)cc2)C1 (stereo not drawn) [compound 25]", 6.44]
]}

====

Mouse cort. challenge % I @ 30 mpk by entry:
biological target: 11β-HSD-1 (Mus musculus, UniProt P50172); construct: from tissue; host or cells: whole animal, C57Bl/6N mice; test: In vivo screen for inhibition of 11β-HSD-1 (mouse cortisone challenge, plasma cortisol); conditions: 30 mpk oral, lean male C57BI/6N mice, cortisone 1 mg/kg sc, plasma cortisol by ELISA
Sequence (P50172 whole entry): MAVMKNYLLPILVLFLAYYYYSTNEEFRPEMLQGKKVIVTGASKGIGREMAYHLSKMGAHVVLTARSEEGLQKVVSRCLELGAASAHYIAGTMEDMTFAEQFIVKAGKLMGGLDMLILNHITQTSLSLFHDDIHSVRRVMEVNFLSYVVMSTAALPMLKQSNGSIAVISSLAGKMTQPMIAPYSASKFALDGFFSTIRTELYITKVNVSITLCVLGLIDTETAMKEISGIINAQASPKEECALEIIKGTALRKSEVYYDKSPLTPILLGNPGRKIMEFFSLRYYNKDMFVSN
quantity: Mouse cort. challenge % I @ 30 mpk (%)

{"columns": ["compound", "unit.annotation", "reported.value"],
 "data": [
  ["CCC(C)(C)c1ccc(S(=O)(=O)N2CC3(C)CC2CC(C)(C)C3)cc1 (stereo not drawn) [Compound No. 23]", "%", 26],
  ["CC(O)c1ccc(S(=O)(=O)N2CC3(C)CC2CC(C)(C)C3)cc1 (stereo not drawn) [compound 44]", "%", 63],
  ["CC1(C)CC2CC(C)(CN2S(=O)(=O)c2ccc(C(C)(C)C)cc2)C1 (stereo not drawn) [Compound No. 1]", "%", 30],
  ["COC(C)(C)c1ccc(S(=O)(=O)N2CC3CC(C)(C2)CC3(C)C)cc1 (stereo not drawn) [compound 49]", "%", 19],
  ["COC(C)c1ccc(S(=O)(=O)N2CC3(C)CC2CC(C)(C)C3)cc1 (stereo not drawn) [compound 45]", "%", 16],
  ["CC1(C)CC2CC(C)(CN2S(=O)(=O)c2ccc(C(C)(C)O)cc2)C1 (stereo not drawn) [compound 50]", "%", 43]
]}
